target: Kras and SOS1 (biotin-tagged human Kras loaded with GDP, His-tagged human SOS1) (Homo sapiens, UniProt P01116, G12D); construct: made in house; host or cells: E. coli (stated for Kras only); experiment: Protein-protein interaction inhibition between Kras and SOS1 (KrasGl2D-SOS PPI) using AlphaScreen; format: binding; details: AlphaScreen; biotin-tagged human Kras loaded with GDP, His-tagged human SOS1; read-out: KRAS G12D-SOS PPI IC50
Sequence (P01116 1-188 isoform P01116-2 G12D): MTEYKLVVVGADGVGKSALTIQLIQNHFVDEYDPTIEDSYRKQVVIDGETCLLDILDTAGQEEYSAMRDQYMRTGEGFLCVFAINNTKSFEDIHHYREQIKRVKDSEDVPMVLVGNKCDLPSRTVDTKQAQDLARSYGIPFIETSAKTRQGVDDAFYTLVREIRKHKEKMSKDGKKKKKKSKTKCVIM
Starred links: 1 amine or outer side, 2 acyl side, 3 side chain; linkers in the order of their positions; H or OH if unused. Positions of bridges follow the written chain, without caps; N, C: chain ends. Non-standard residues stand in square brackets, D forms with d. Residues, ends and D or L forms follow the SMILES beside them. *: point of attachment. hPhe(3-Cl-4-CF3) = N[C@@H](CCc1ccc(C(F)(F)F)c(Cl)c1)C(=O)O; hPhe(3-F,4-CF3) = N[C@@H](CCc1ccc(C(F)(F)F)c(F)c1)C(=O)O; NMePhe(4-CF3) = CN[C@@H](Cc1ccc(C(F)(F)F)cc1)C(=O)O; X35 = CN([C@@](C)(Cc1ccccc1)C(=O)[*:2])[*:1]; NMeGly(cPent) = CN[C@H](C(=O)O)C1CCCC1; Phe(3-I) = N[C@@H](Cc1cccc(I)c1)C(=O)O; NMeY = CN[C@@H](Cc1ccc(O)cc1)C(=O)O; NMeCha = CN[C@@H](CC1CCCCC1)C(=O)O; NMeAoc(2) = CCCCCC[C@H](NC)C(=O)O; NMeChg = CN[C@H](C(=O)O)C1CCCCC1; NMeD = CN[C@@H](CC(=O)O)C(=O)O; NMeL = CN[C@@H](CC(C)C)C(=O)O; d(β3hA) = C[C@@H](N)CC(=O)O; NMeA = CN[C@@H](C)C(=O)O; NMeAib = CNC(C)(C)C(=O)O; Nle = CCCC[C@H](N)C(=O)O; Piperidide = C1CCN(*)CC1; Ac5c = NC1(C(=O)O)CCCC1; Aze = O=C(O)[C@@H]1CCN1; Sar = CNCC(=O)O
1.0 if IC50 is below 20 nM. 0.0 if not; exact matches included in 0.0.

Prompt: Take the compound CC[C@H](C)[C@@H]1NC(=O)[C@H](CC(C)C)N(C)C(=O)C[C@@H](C)NC(=O)[C@H](C2CCCC2)N(C)C(=O)C2(CCCC2)NC(=O)[C@@H]2CCCN2C(=O)[C@H](CCc2ccc(C(F)(F)F)c(Cl)c2)NC(=O)CN(C)C(=O)[C@H](Cc2ccc(C(F)(F)F)cc2)N(C)C(=O)CN(C)C(=O)CN(C)C1=O [Compound 1524] (cyclo([Ac5c][NMeGly(cPent)][d(β3hA)][NMeL]I[Sar][Sar][NMePhe(4-CF3)][Sar][hPhe(3-Cl-4-CF3)]P)) and say whether its IC50 is less than 20 nM.
Response: 1.0

Prompt: Hello, I'm reviewing records and need to know if IC50 of CCCCCC[C@H]1C(=O)N[C@@H]([C@@H](C)CC)C(=O)N(C)CC(=O)N2CC[C@H]2C(=O)N(C)[C@@H](Cc2ccc(OC)cc2)C(=O)N(C)CC(=O)N[C@@H](Cc2cccc(I)c2)C(=O)N[C@@H](CCCC)C(=O)N(C)C(C)(C)C(=O)N[C@@H](CC(C)C)C(=O)N(C)[C@H](C(=O)N2CCCCC2)CC(=O)N1C [Compound 1417] ([NMeAoc(2)]I[Sar][Aze][NMeY](Me)[Sar][Phe(3-I)][Nle][NMeAib]L[NMeD]-Piperidide; lactam N-11) is below 20 nM. Could you check?
Response: 0.0

Prompt: A record lists CC[C@H](C)[C@@H]1NC(=O)[C@H](C)N(C)C(=O)C[C@@H](C(=O)N2CCCCC2)N(C)C(=O)[C@H](C2CCCCC2)N(C)C(=O)C2(CCCC2)NC(=O)[C@@H]2CCCN2C(=O)[C@H](CCc2ccc(C(F)(F)F)c(F)c2)NC(=O)CN(C)C(=O)[C@H](CC2CCCCC2)N(C)C(=O)CN(C)C(=O)CN(C)C1=O [Compound 491] ([NMeA]I[Sar][Sar][NMeCha][Sar][hPhe(3-F,4-CF3)]P[Ac5c][NMeChg][NMeD]-Piperidide; lactam N-11) . Is its IC50 below 20 nM?
Response: 1.0

Prompt: # check: IC50 < 20 nM for CCCC[C@@H]1NC(=O)[C@H](Cc2cccc(I)c2)NC(=O)CN(C)C(=O)[C@H](Cc2ccc(OC)cc2)N(C)C(=O)CN(C)C(=O)CN(C)C(=O)[C@H]([C@@H](C)CC)NC(=O)[C@H](CC(C)C)N(C)C(=O)C[C@@H](C(=O)N2CCCCC2)N(C)C(=O)[C@H](CC(C)C)NC(=O)[C@](C)(Cc2ccccc2)N(C)C1=O [Compound 125] ([NMeL]I[Sar][Sar][NMeY](Me)[Sar][Phe(3-I)][Nle][X35]L[NMeD]-Piperidide; lactam N-11)
Response: 1.0

* * *

biological target: Kras and SOS1 (biotin-tagged human Kras loaded with GDP, His-tagged human SOS1) (Homo sapiens, UniProt P01116, G12D); construct: made in house; host or cells: E. coli (stated for Kras only); assay: Protein-protein interaction inhibition between Kras and SOS1 (KrasGl2D-SOS PPI) using AlphaScreen; assay type: binding; conditions: AlphaScreen; biotin-tagged human Kras loaded with GDP, His-tagged human SOS1; read-out: KRAS G12D-SOS PPI IC50
Starred links: 1 amine or outer side, 2 acyl side, 3 side chain; linkers in the order of their positions; H or OH if unused. Positions of bridges follow the written chain, without caps; N, C: chain ends. Non-standard residues stand in square brackets, D forms with d. Residues, ends and D or L forms follow the SMILES beside them. *: point of attachment. hPhe(3-Cl-4-CF3) = N[C@@H](CCc1ccc(C(F)(F)F)c(Cl)c1)C(=O)O; X38 = CN([C@@H](Cc1cccc(OC(F)(F)F)c1)C(=O)[*:2])[*:1]; NMePhe(4-CF3) = CN[C@@H](Cc1ccc(C(F)(F)F)cc1)C(=O)O; Phe(3-CF3) = N[C@@H](Cc1cccc(C(F)(F)F)c1)C(=O)O; NMePhe(4-Cl) = CN[C@@H](Cc1ccc(Cl)cc1)C(=O)O; NMePhe(4-Me) = CN[C@@H](Cc1ccc(C)cc1)C(=O)O; NMePhe(4-F) = CN[C@@H](Cc1ccc(F)cc1)C(=O)O; NMeGly(cPent) = CN[C@H](C(=O)O)C1CCCC1; Phe(3-I) = N[C@@H](Cc1cccc(I)c1)C(=O)O; Pro(4,4-F2) = O=C(O)[C@@H]1CC(F)(F)CN1; NMeCha = CN[C@@H](CC1CCCCC1)C(=O)O; NMeChg = CN[C@H](C(=O)O)C1CCCCC1; NMeF = CN[C@@H](Cc1ccccc1)C(=O)O; NMeI = CC[C@H](C)[C@H](NC)C(=O)O; NMeD = CN[C@@H](CC(=O)O)C(=O)O; NMeL = CN[C@@H](CC(C)C)C(=O)O; NMeV = CN[C@H](C(=O)O)C(C)C; d(β3hA) = C[C@@H](N)CC(=O)O; NMeA = CN[C@@H](C)C(=O)O; NMeAib = CNC(C)(C)C(=O)O; Nle = CCCC[C@H](N)C(=O)O; Piperidide = C1CCN(*)CC1; Pra = C#CC[C@H](N)C(=O)O; Ac5c = NC1(C(=O)O)CCCC1; Aze = O=C(O)[C@@H]1CCN1; X76 = Clc1cccc(C*)c1; Sar = CNCC(=O)O
Provide the recorded IC50 for the entries that follow.
A number alone suffices; assume µM.

Prompt: So what's the measured IC50 for this one? CC[C@H](C)[C@@H]1NC(=O)[C@H](CC(C)C)N(C)C(=O)C[C@@H](C(=O)N2CCCCC2)N(C)C(=O)[C@H](CC(C)C)NC(=O)C(C)(C)N(C)C(=O)[C@H](Cc2cccc(C(F)(F)F)c2)NC(=O)[C@H](Cc2cccc(I)c2)NC(=O)CN(C)C(=O)[C@H](Cc2ccc(C)cc2)N(C)C(=O)CN(C)C(=O)CN(C)C1=O [Compound 376] ([NMeL]I[Sar][Sar][NMePhe(4-Me)][Sar][Phe(3-I)][Phe(3-CF3)][NMeAib]L[NMeD]-Piperidide; lactam N-11)
Response: 0.044

Prompt: Item CC[C@H](C)[C@@H]1NC(=O)[C@H](CC(C)C)N(C)C(=O)C[C@@H](C(=O)N(C)C)N(C)C(=O)[C@H](C2CCCC2)N(C)C(=O)C2(CCCC2)NC(=O)[C@H](Cc2ccccc2)N(C)C(=O)[C@H](CCc2ccc(C(F)(F)F)c(Cl)c2)NC(=O)CN(C)C(=O)[C@H](CC2CCCCC2)N(C)C(=O)[C@@H]2CCN2C(=O)[C@H](C)N(C)C1=O [Compound 854] ([NMeL]I[NMeA][Aze][NMeCha][Sar][hPhe(3-Cl-4-CF3)][NMeF][Ac5c][NMeGly(cPent)][NMeD]-NMe2; lactam N-11) has what recorded IC50?
Response: 0.011

Prompt: Requested read-out: IC50. Entry: C#CC[C@@H]1NC(=O)[C@H](Cc2cccc(I)c2)NC(=O)CN(C)C(=O)[C@H](Cc2ccc(F)cc2)N(C)C(=O)CN(C)C(=O)CN(C)C(=O)[C@H]([C@@H](C)CC)NC(=O)[C@H](CC(C)C)N(C)C(=O)C[C@@H](C(=O)N2CCCCC2)N(C)C(=O)[C@H](CC(C)C)NC(=O)C(C)(C)N(C)C1=O [Compound 1327] ([NMeL]I[Sar][Sar][NMePhe(4-F)][Sar][Phe(3-I)][Pra][NMeAib]L[NMeD]-Piperidide; lactam N-11)
Response: 0.072

Prompt: Need IC50 of CC[C@H](C)[C@@H]1NC(=O)[C@H](CC(C)C)N(C)C(=O)C[C@@H](C)NC(=O)[C@H](C(C)C)N(C)C(=O)C2(CCCC2)NC(=O)[C@@H]2CCCN2C(=O)[C@H](CCc2ccc(C(F)(F)F)c(Cl)c2)NC(=O)CN(C)C(=O)[C@H](Cc2ccc(C(F)(F)F)cc2)N(C)C(=O)CN(C)C(=O)CN(C)C1=O [Compound 1620] (cyclo([Ac5c][NMeV][d(β3hA)][NMeL]I[Sar][Sar][NMePhe(4-CF3)][Sar][hPhe(3-Cl-4-CF3)]P)) , thanks.
Response: 0.0054

Prompt: Suppose we examine the compound CCCC[C@@H]1NC(=O)[C@H](Cc2cccc(I)c2)NC(=O)CN(C)C(=O)[C@H](Cc2ccc(Cl)cc2)N(C)C(=O)CN(C)C(=O)CN(C)C(=O)[C@H]([C@@H](C)CC)NC(=O)[C@H](CC(C)C)N(C)C(=O)C[C@@H](C(=O)N2CCCCC2)N(C)C(=O)[C@H](CC(C)C)NC(=O)[C@H](Cc2ccc(C)cc2)N(C)C1=O [Compound 876] ([NMeL]I[Sar][Sar][NMePhe(4-Cl)][Sar][Phe(3-I)][Nle][NMePhe(4-Me)]L[NMeD]-Piperidide; lactam N-11) ; what IC50 value has been reported?
Response: 0.018

Prompt: # input compound: CC[C@H](C)[C@@H]1NC(=O)[C@H](CC(C)C)N(C)C(=O)C[C@@H](C(=O)N2CCCCC2)N(C)C(=O)[C@H](C2CCCCC2)N(C)C(=O)C2(CCCC2)NC(=O)[C@@H]2CCCN2C(=O)[C@H](CCc2ccc(C(F)(F)F)c(Cl)c2)NC(=O)CN(C)C(=O)[C@H](CC2CCCCC2)N(C)C(=O)CN(C)C(=O)[C@H](C)N(C)C1=O [Compound 1345] ([NMeL]I[NMeA][Sar][NMeCha][Sar][hPhe(3-Cl-4-CF3)]P[Ac5c][NMeChg][NMeD]-Piperidide; lactam N-11) ; wanted: its IC50
Response: 0.04

Prompt: Request the reported IC50 associated with CC[C@H](C)[C@@H]1NC(=O)[C@H](CC(C)C)N(C)C(=O)C[C@@H](C(=O)N2CCCCC2)N(C)C(=O)[C@H](C2CCCCC2)N(C)C(=O)C2(CCCC2)NC(=O)[C@@H]2CC(F)(F)CN2C(=O)[C@H](CCc2ccc(C(F)(F)F)c(Cl)c2)NC(=O)CN(C)C(=O)[C@H](CC2CCCCC2)N(C)C(=O)CN(C)C(=O)CN(C)C1=O [Compound 48] ([NMeL]I[Sar][Sar][NMeCha][Sar][hPhe(3-Cl-4-CF3)][Pro(4,4-F2)][Ac5c][NMeChg][NMeD]-Piperidide; lactam N-11)
Response: 0.00097

Prompt: Return reported IC50; argument: CC[C@H](C)[C@@H]1NC(=O)[C@H](C)N(C)C(=O)C[C@@H](C(=O)N2CCCCC2)N(C)C(=O)[C@H](C2CCCCC2)N(C)C(=O)C2(CCCC2)NC(=O)[C@@H]2CCCN2C(=O)[C@H](COCc2cccc(Cl)c2)NC(=O)CN(C)C(=O)[C@H](CC2CCCCC2)N(C)C(=O)CN(C)C(=O)CN(C)C1=O [Compound 2045] ([NMeA]I[Sar][Sar][NMeCha][Sar]S(X76)P[Ac5c][NMeChg][NMeD]-Piperidide; lactam N-11)
Response: 0.015

Prompt: Entry under review: CC[C@H](C)[C@@H]1NC(=O)[C@H](C)N(C)C(=O)C[C@@H](C(=O)N(C)C)N(C)C(=O)[C@H]([C@@H](C)CC)N(C)C(=O)C2(CCCC2)NC(=O)[C@H](Cc2cccc(OC(F)(F)F)c2)N(C)C(=O)[C@H](CCc2ccc(C(F)(F)F)c(Cl)c2)NC(=O)CN(C)C(=O)[C@H](Cc2ccc(C)cc2)N(C)C(=O)[C@@H]2CCN2C(=O)[C@H](C)N(C)C1=O [Compound 1945] ([NMeA]I[NMeA][Aze][NMePhe(4-Me)][Sar][hPhe(3-Cl-4-CF3)][X38][Ac5c][NMeI][NMeD]-NMe2; lactam N-11) . Reported IC50?
Response: 0.018

Origin of the recorded values: patent US12371454B2
